molecular target: T1, ROR1 extracellular domain Fc-fusion, dimer (human, UniProt Q01973 30-406); experiment: SPR, immobilised ROR1 dimer, antibody injected, 1:1 model; apparent affinity
T1 construct: also called ROR1 dimer; hROR1 dimeric ECD-Fc fusion protein; not shown: Fc part
T1 sequence (Q01973 30-406): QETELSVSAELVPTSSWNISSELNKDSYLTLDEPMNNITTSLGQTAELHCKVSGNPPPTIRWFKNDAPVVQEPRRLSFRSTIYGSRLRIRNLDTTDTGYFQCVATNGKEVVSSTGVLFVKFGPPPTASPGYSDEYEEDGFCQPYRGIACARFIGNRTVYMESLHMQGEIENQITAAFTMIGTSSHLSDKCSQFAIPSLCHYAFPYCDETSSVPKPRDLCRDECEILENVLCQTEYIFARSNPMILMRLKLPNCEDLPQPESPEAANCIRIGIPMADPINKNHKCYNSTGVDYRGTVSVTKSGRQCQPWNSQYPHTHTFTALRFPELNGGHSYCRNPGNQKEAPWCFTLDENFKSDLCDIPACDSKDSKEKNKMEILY
Recorded Kd, one value per entry.

binder	Kd
Antibody 601-119 (antibody, V domains shown) VH: QVQLVQSGGGLVKPGGSLRLSCAASGFTFGTYSMNWVRQAPGKGLEWVSSISSSSSYIYYADSVKGRFTISRDNAKNSLYLQMNSLRAEDTAVYYCARGLGGWTHDAFDIWGQGTTVTVSS VL: QSALTQPASVSASPGQSITISCTGTSSDVGGYNYVTWYQQHPGKAPKLMIYDVSKRPSGVLDRFSGSKSGNTASLTISGLQAEDEADYFCSSYTSSSTLVFGGGTKLTVLG	178 nM
Antibody 601-65 (antibody, V domains shown) VH: QVQLQQSGPGLVKPSQTLSLTCAISGDSVSSNSATWNWIRQSPSRGLEWLGRTYYRSKWYNDYAVSVKSRIIINPDTSKNQFSLQLNSVTPEDTAVYYCARGVRAFDIWGQGTTVTVSS VL: QSVLTQPPSVSGTPGQRVTIFCSGGSNNIGRSSVYWYRQAAGTAPKLLIYKTDQRPSGVPDRFAASKSGASASLAISGLRSEDEADYHCATWDDSLSAVVFGGGTKLTVL	6.4 nM
Antibody 601-100 (antibody, V domains shown) VH: EVQLVQSGGGVVQPGGPLRLSCAASGFTFSSYSMNWVRQAPGKGLEWVSSISSSSSYIYYADSVKGRFTISRDNAKNSLYLQMNSLRAEDTAVYYCARGLGGWTHDAFDIWGQGTMVTVSS VL: QSALTQPASVSGSPGQSITISCTGTSRDVGGYDYVSWYQQYPGNAPKLMIYDVSRRPSGVSHRFSASKSGNTASLTISGLQTEDEADYYCSSYTSSSTRVFGGGTKVTVL	3.9 nM
